Biological target: T1, PACAP-R3 (human, UniProt P41587 24-438)
T1 sequence (looked up): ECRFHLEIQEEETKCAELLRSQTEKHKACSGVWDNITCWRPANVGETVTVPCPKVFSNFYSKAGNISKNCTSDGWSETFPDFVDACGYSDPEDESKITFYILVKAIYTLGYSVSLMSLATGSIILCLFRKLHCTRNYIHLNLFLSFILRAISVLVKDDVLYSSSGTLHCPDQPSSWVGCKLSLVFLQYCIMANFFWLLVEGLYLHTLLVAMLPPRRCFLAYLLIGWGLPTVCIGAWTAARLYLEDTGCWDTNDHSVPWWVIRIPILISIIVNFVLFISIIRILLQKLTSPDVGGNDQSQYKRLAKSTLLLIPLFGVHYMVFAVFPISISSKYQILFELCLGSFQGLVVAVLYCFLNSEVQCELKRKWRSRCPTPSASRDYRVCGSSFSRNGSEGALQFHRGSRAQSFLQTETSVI
Experiment: cell-based or functional assay
Quantity: R3 Selectivity

> print(dat)
                                     binder        quantity  inequality.symbol  numeric.result
 1  HSDAVFTDNYTRLRKQMAAHKYLNSIKNKRY [R3P73]  R3 Selectivity                  =             170
 2  HSDAVFTDNYTRLRKQMAAKHYLNSIKNKRY [R3P74]  R3 Selectivity                  =             150
 3  HSDAVFTDNYTRLRKQMAAKKYLNSIPNKR [R3P126]  R3 Selectivity                  =             200
 4  HSDAVFTDNYTRLRKQMAAKKYLNSIKKGGT [R3P26]  R3 Selectivity                  >             180
 5     HSDAVFTDNYTRLRKQIAAKKYLQTIKK [R3P61]  R3 Selectivity                  =             140
 6     HSDAVFTDNYTRLRKQMAAKKYLNSILK [R3P50]  R3 Selectivity                  =               6
 7   HSDAVFTDNYTRLRKQVAAKKYLQSILNKR [R3P93]  R3 Selectivity                  =              40
 8  HSDAVFTDNYTRLRKQMAAKKYLNSIHNKR [R3P122]  R3 Selectivity                  =              50
 9  HSDAVFTDNYTRLRKQMAAKKYLNSIKNKG [R3P158]  R3 Selectivity                  =              90
10  HSDAVFTDNYTRLRKQMAIKKYLNSIKNKR [R3P103]  R3 Selectivity                  =               8
11  HSDAVFTDNYTRLRKQMAAKKYLNSIENKR [R3P119]  R3 Selectivity                  =              30
12  HSDAVFTDNYTRLRKQMAHKKYLNSIKNKR [R3P102]  R3 Selectivity                  =               5
13  HSDAVFTDNYTRLRKQMAAKKYLNSIKNQR [R3P146]  R3 Selectivity                  =             100
14     HSDAVFTDNYTRLRKQVAAKKYLNSIKK [R3P62]  R3 Selectivity                  =             100
